Assay Explanation: PFAS levels in urine samples of airport employees, specific-gravity adjusted (LC/MS/MS)
Assay type: in vivo, human
Condition Set: 4th sampling (December 2018), count 14
hey, just use met if measured Specific gravity adjusted urinary level, Max is less than 0.1 ng/mL, otherwise not met

O=S(=O)(O)C(F)(F)C(F)(F)C(F)(F)C(F)(F)C(F)(F)C(F)(F)C(F)(F)C(F)(F)F    met
O=S(=O)(O)C(F)(F)C(F)(F)C(F)(F)C(F)(F)C(F)(F)F    not met
O=C(O)C(F)(F)C(F)(F)C(F)(F)C(F)(F)C(F)(F)C(F)(F)F    met
O=S(=O)(O)C(F)(F)C(F)(F)C(F)(F)C(F)(F)C(F)(F)C(F)(F)F    not met
O=C(O)C(F)(F)C(F)(F)C(F)(F)C(F)(F)C(F)(F)C(F)(F)C(F)(F)F    not met
